# System: LoVo
# protocol_notes: Cytotoxicity against human doxorubicin resistant LoVo cells after 48 hrs by SRB assay
# Format: functional
As shown below, each of these compounds has a reported GI50 value.
reported_metric: GI50

[[record]]
test_smiles = "C/C=C1\\NC(=O)[C@H](Cc2ccccc2)NC(=O)[C@@H](C(C)C)NC(=O)[C@@H]([C@H](C)CC)NC(=O)[C@H](NC(=O)[C@H](NC(=O)[C@H](CCCN)NC(=O)[C@H]2CCCN2C(=O)[C@H](NC(=O)[C@@H](NC(=O)[C@@H](NC(=O)[C@H](NC(=O)CC[C@H](C)CC)C(C)C)[C@@H](C)O)C(C)C)C(C)C)[C@H](C)CC)[C@H](C)OC(=O)[C@H](C(C)C)NC1=O"
value = "690 nM"

[[record]]
test_smiles = "C/C=C1\\NC(=O)[C@H](Cc2c[nH]c3ccccc23)NC(=O)[C@@H](C(C)C)NC(=O)[C@@H]([C@H](C)CC)NC(=O)[C@H](NC(=O)[C@H](NC(=O)[C@H](CCCN)NC(=O)[C@H]2CCCN2C(=O)[C@H](NC(=O)[C@@H](NC(=O)[C@@H](NC(=O)[C@H](NC(=O)CCCC(C)C)C(C)C)[C@@H](C)O)C(C)C)C(C)C)[C@H](C)CC)[C@H](C)OC(=O)[C@H](C(C)C)NC1=O"
value = "507 nM"

[[record]]
test_smiles = "C/C=C1\\NC(=O)[C@H](Cc2ccccc2)NC(=O)[C@@H](C(C)C)NC(=O)[C@@H]([C@H](C)CC)NC(=O)[C@H](NC(=O)[C@H](NC(=O)[C@H](CCCN)NC(=O)[C@H]2CCCN2C(=O)[C@H](NC(=O)[C@@H](NC(=O)[C@@H](NC(=O)[C@H](NC(=O)CCCCCCCCCC)C(C)C)[C@@H](C)O)C(C)C)C(C)C)[C@H](C)CC)[C@H](C)OC(=O)[C@H](C(C)C)NC1=O"
value = "96.2 nM"


----------
Listed below: CC50 values for each entry.
# Tested on: HT-29
# protocol_notes: Cytotoxicity against human HT29 cells after 48 hrs by SRB assay
# Format: functional, cell-based
# assay_context: Homo sapiens, HT-29, 48 h; read-out: LC50 (the source's name)
reported_metric: CC50

[[record]]
test_smiles = "C/C=C1\\NC(=O)[C@H](Cc2ccccc2)NC(=O)[C@@H](C(C)C)NC(=O)[C@@H]([C@H](C)CC)NC(=O)[C@H](NC(=O)[C@H](NC(=O)[C@H](CCCCN)NC(=O)[C@H]2CCCN2C(=O)[C@H](NC(=O)[C@@H](NC(=O)[C@@H](NC(=O)[C@H](NC(=O)CCCC(C)C)C(C)C)[C@@H](C)O)C(C)C)C(C)C)[C@H](C)CC)[C@H](C)OC(=O)[C@H](C(C)C)NC1=O"
value = "340 nM"

[[record]]
test_smiles = "C/C=C1\\NC(=O)[C@H](Cc2ccccc2)NC(=O)[C@@H](C(C)C)NC(=O)[C@@H]([C@H](C)CC)NC(=O)[C@H](NC(=O)[C@H](NC(=O)[C@H](CCCN)NC(=O)[C@H]2CCCN2C(=O)[C@H](NC(=O)[C@@H](NC(=O)[C@@H](NC(=O)[C@H]2CCCN2C(=O)CCCC(C)C)[C@@H](C)O)C(C)C)C(C)C)[C@H](C)CC)[C@H](C)OC(=O)[C@H](C(C)C)NC1=O"
value = "1140 nM"

[[record]]
test_smiles = "C/C=C1\\NC(=O)[C@H](Cc2ccccc2)NC(=O)[C@@H](C(C)C)NC(=O)[C@@H]([C@H](C)CC)NC(=O)[C@H](NC(=O)[C@H](NC(=O)[C@H](NC(=O)[C@@H](NC(=O)[C@@H](NC(=O)[C@H](NC(=O)CCCC(C)C)C(C)C)[C@@H](C)O)C(C)C)C(C)C)[C@H](C)CC)[C@H](C)OC(=O)[C@H](C(C)C)NC1=O"
value = "30600 nM"


----------
# Tested on: DU-145
# protocol_notes: Cytotoxicity against human DU145 cells after 48 hrs by SRB assay
# Type: functional, cell-based
# assay_context: Homo sapiens, DU-145, 48 h; read-out: LC50 (the source's name)
Measured CC50, listed per entry.
reported_metric: CC50 (nM)

[[record]]
compound = "C/C=C1\\NC(=O)[C@H](Cc2ccccc2)NC(=O)[C@@H](C(C)C)NC(=O)[C@@H]([C@H](C)CC)NC(=O)[C@H](NC(=O)[C@H](NC(=O)[C@H](CCCN)NC(=O)[C@H]2CCCN2C(=O)[C@H](NC(=O)[C@@H](NC(=O)[C@@H](NC(=O)[C@H](NC(=O)C2CCC(C)CC2)C(C)C)[C@@H](C)O)C(C)C)C(C)C)[C@H](C)CC)[C@H](C)OC(=O)[C@H](C(C)C)NC1=O (stereo partly drawn)"
value = 839

[[record]]
compound = "C/C=C1\\NC(=O)[C@H](Cc2ccccc2)NC(=O)[C@@H](C(C)C)NC(=O)[C@@H]([C@H](C)CC)NC(=O)[C@H](NC(=O)[C@H](NC(=O)[C@H](CCCN)NC(=O)[C@H]2CCCN2C(=O)[C@H](NC(=O)[C@H](C)NC(=O)[C@@H](NC(=O)[C@H](NC(=O)CCCC(C)C)C(C)C)[C@@H](C)O)C(C)C)[C@H](C)CC)[C@H](C)OC(=O)[C@H](C(C)C)NC1=O"
value = 1680

[[record]]
compound = "C/C=C1\\NC(=O)[C@H](Cc2ccccc2)NC(=O)[C@@H](C(C)C)NC(=O)[C@@H]([C@H](C)CC)NC(=O)[C@H](NC(=O)[C@H](NC(=O)[C@H](CCCN)NC(=O)[C@H]2CCCN2C(=O)[C@H](NC(=O)[C@@H](NC(=O)[C@@H](NC(=O)[C@@H](CC2CCCCC2)NC(=O)CCCC(C)C)[C@@H](C)O)C(C)C)C(C)C)[C@H](C)CC)[C@H](C)OC(=O)[C@H](C(C)C)NC1=O"
value = 1030


----------
# protocol_notes: Cytotoxicity against human IGROV-ET cells after 48 hrs by SRB assay
# Type: functional
# assay_context: read-out: LC50 (the source's name)
reported_metric: CC50 (nM)

[[record]]
test_smiles = "C/C=C1\\NC(=O)[C@H](Cc2ccccc2)NC(=O)[C@@H](C(C)C)NC(=O)[C@@H]([C@H](C)CC)NC(=O)[C@H](NC(=O)[C@H](NC(=O)[C@H](CCCN)NC(=O)[C@H]2CCCN2C(=O)[C@H](NC(=O)[C@@H](NC(=O)CNC(=O)[C@H](NC(=O)CCCC(C)C)C(C)C)C(C)C)C(C)C)[C@H](C)CC)[C@H](C)OC(=O)[C@H](C(C)C)NC1=O"
reported_metric = "CC50"
value_unit = "nM"
value = 566

[[record]]
test_smiles = "C/C=C1\\NC(=O)[C@H](Cc2ccccc2)NC(=O)[C@@H](C(C)C)NC(=O)[C@@H]([C@H](C)CC)NC(=O)[C@H](NC(=O)[C@H](NC(=O)[C@H](CCCN)NC(=O)[C@H]2CCCN2C(=O)[C@H](NC(=O)[C@@H](NC(=O)[C@@H](NC(=O)[C@H](NC(=O)c2ccc(C(F)(F)F)cc2)C(C)C)[C@@H](C)O)C(C)C)C(C)C)[C@H](C)CC)[C@H](C)OC(=O)[C@H](C(C)C)NC1=O"
reported_metric = "CC50"
value_unit = "nM"
value = 294

[[record]]
test_smiles = "C/C=C1\\NC(=O)[C@H](Cc2ccccc2)NC(=O)[C@@H](C(C)C)NC(=O)[C@@H]([C@H](C)CC)NC(=O)[C@H](NC(=O)[C@H](NC(=O)[C@H](CCCN)NC(=O)[C@H]2CCCN2C(=O)[C@H](NC(=O)[C@H](Cc2ccccc2)NC(=O)[C@@H](NC(=O)[C@H](NC(=O)CCCC(C)C)C(C)C)[C@@H](C)O)C(C)C)[C@H](C)CC)[C@H](C)OC(=O)[C@H](C(C)C)NC1=O"
reported_metric = "CC50"
value_unit = "nM"
value = 262


----------
# Tested on: DU-145
# protocol_notes: Cytotoxicity against human DU145 cells after 48 hrs by SRB assay
# Assay type: functional, cell-based
# assay_context: Homo sapiens, DU-145, 48 h; read-out: LC50 (the source's name)
reported_metric: CC50

[[record]]
test_smiles = "C/C=C1\\NC(=O)[C@H](Cc2ccccc2)NC(=O)[C@@H](C(C)C)NC(=O)[C@@H]([C@H](C)CC)NC(=O)[C@H](NC(=O)[C@H](NC(=O)[C@H](CCCN)NC(=O)[C@H]2CCCN2C(=O)[C@H](NC(=O)[C@@H](NC(=O)[C@@H](NC(=O)[C@@H](CC(C)C)NC(=O)CCCC(C)C)[C@@H](C)O)C(C)C)C(C)C)[C@H](C)CC)[C@H](C)OC(=O)[C@H](C(C)C)NC1=O"
value = "889 nM"

[[record]]
test_smiles = "C/C=C1\\NC(=O)[C@H](Cc2ccc(Cl)cc2)NC(=O)[C@@H](C(C)C)NC(=O)[C@@H]([C@H](C)CC)NC(=O)[C@H](NC(=O)[C@H](NC(=O)[C@H](CCCN)NC(=O)[C@H]2CCCN2C(=O)[C@H](NC(=O)[C@@H](NC(=O)[C@@H](NC(=O)[C@H](NC(=O)CCCC(C)C)C(C)C)[C@@H](C)O)C(C)C)C(C)C)[C@H](C)CC)[C@H](C)OC(=O)[C@H](C(C)C)NC1=O"
value = "388 nM"

[[record]]
test_smiles = "CC[C@@H](C)[C@@H](NC(=O)[C@H](CCCN)NC(=O)[C@H]1CCCN1C(=O)[C@H](NC(=O)[C@@H](NC(=O)[C@@H](NC(=O)[C@H](NC(=O)CCCC(C)C)C(C)C)[C@@H](C)O)C(C)C)C(C)C)C(=O)N[C@H]1C(=O)N[C@H]([C@H](C)CC)C(=O)N[C@H](C(C)C)C(=O)N[C@@H](Cc2ccccc2)C(=O)N[C@H]([C@H](C)O)C(=O)N[C@@H](C(C)C)C(=O)O[C@H]1C"
value = "1500 nM"

[[record]]
test_smiles = "C/C=C1\\NC(=O)[C@@H]2C[C@@H]3CCCC[C@@H]3N2C(=O)[C@@H](C(C)C)NC(=O)[C@@H]([C@H](C)CC)NC(=O)[C@H](NC(=O)[C@H](NC(=O)[C@H](CCCN)NC(=O)[C@H]2CCCN2C(=O)[C@H](NC(=O)[C@@H](NC(=O)[C@@H](NC(=O)[C@H](NC(=O)CC[C@@H](C)CC)C(C)C)[C@@H](C)O)C(C)C)C(C)C)[C@H](C)CC)[C@H](C)OC(=O)[C@H](C(C)C)NC1=O"
value = "1070 nM"

[[record]]
test_smiles = "C/C=C1\\NC(=O)[C@H](Cc2ccccc2)NC(=O)[C@@H](C(C)C)NC(=O)[C@@H]([C@H](C)CC)NC(=O)[C@H](NC(=O)[C@H](NC(=O)[C@H](CCCN)NC(=O)[C@H]2CCCN2C(=O)[C@H](NC(=O)[C@@H](NC(=O)[C@@H](NC(=O)[C@@H](CCC(=O)O)NC(=O)CCCC(C)C)[C@@H](C)O)C(C)C)C(C)C)[C@H](C)CC)[C@H](C)OC(=O)[C@H](C(C)C)NC1=O"
value = "1660 nM"

